test.target: Rac GTPase-activating protein 1 (Homo sapiens) (UniProt Q9H0H5)
Sequence (Q9H0H5 whole entry, looked up): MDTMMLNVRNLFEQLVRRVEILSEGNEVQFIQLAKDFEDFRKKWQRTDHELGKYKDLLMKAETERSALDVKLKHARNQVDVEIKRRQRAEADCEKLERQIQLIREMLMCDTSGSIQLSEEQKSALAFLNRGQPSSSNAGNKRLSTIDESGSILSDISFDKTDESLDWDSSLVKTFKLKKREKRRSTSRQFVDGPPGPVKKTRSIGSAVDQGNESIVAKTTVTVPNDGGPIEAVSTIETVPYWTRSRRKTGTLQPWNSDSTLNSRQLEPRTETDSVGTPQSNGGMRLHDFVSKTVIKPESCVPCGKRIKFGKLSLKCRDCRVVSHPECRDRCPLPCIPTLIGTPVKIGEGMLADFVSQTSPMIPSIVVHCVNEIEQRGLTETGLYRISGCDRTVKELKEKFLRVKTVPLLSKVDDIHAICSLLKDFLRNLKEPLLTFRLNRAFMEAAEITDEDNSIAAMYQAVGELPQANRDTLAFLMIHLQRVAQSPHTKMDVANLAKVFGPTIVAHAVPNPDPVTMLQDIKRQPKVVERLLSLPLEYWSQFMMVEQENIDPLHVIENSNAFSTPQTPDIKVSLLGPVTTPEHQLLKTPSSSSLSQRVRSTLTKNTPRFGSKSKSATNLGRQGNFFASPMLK
test.description: blockers of MgcRacGAP-driven Rac1 GTP hydrolysis – biochemical, ADP Hunter fluorescence, primary and confirmatory, confirmation (AID 624330);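 also: fluorescence reports GDP produced by GAP-driven GTP hydrolysis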
condition.summary: MgcRacGAP-stimulated Rac1 GTP hydrolysis, at 30 µM, stronger effect = higher value, GST-tagged Rac1 F28L mutant substrate
Out of some 340,000 compounds screened, about 2,100 (0.62%) were called active. A selection follows. Potency and affinity values are given separately.
Documented inhibition across a set of compounds
Reply numerically in %, unit not repeated.

Return inhibition (reported value) for this compound: Cc1ccc(-c2csc(/C(C#N)=C/Nc3ccc4c(c3)OCCO4)n2)cc1
16.1

Return inhibition (reported value) for this compound: COc1ccccc1N1CCN(/N=C(\C)c2ccc(O)cc2)CC1
8.49

Return inhibition (reported value) for this compound: CN1CCN(Cc2cccc(Oc3ccccc3)c2)CC1
4.23

Return inhibition (reported value) for this compound: CCN1CCN(Cc2cccc(Oc3ccccc3)c2)CC1
22.4

Return inhibition (reported value) for this compound: O=C1NC(=S)S/C1=C\c1coc2ccc(O)cc2c1=O
7.3

Return inhibition (reported value) for this compound: CC(=O)Oc1ccc(/C(C)=N/N2CCN(Cc3ccc(C)cc3)CC2)cc1
-1.21

Return inhibition (reported value) for this compound: CCN(CC)CCOC(=O)c1ccc(N/C=C(/C#N)c2nc(-c3cc4ccccc4oc3=O)cs2)cc1
26.6

Return inhibition (reported value) for this compound: COc1ccc2nc(C)cc(SCC(=O)N/N=C/c3ccccc3)c2c1
5.43

Return inhibition (reported value) for this compound: COc1cc(CN2CCN(Cc3ccccc3C(F)(F)F)CC2)cc(OC)c1OC
5.51

Return inhibition (reported value) for this compound: O=C(c1ccco1)N1CCN(Cc2cccc3ccccc23)CC1
15.8

Return inhibition (reported value) for this compound: COc1ccccc1CN1CCN(C(=O)c2ccco2)CC1
-1.8

Return inhibition (reported value) for this compound: COc1ccc(/C=N/N2CCN(c3ccccc3OC)CC2)cc1Br
5.46

Return inhibition (reported value) for this compound: CSC1=NSC2=NC(=O)/C(=C/c3coc4ccc(O)cc4c3=O)C(=N)N12
14.1

Return inhibition (reported value) for this compound: O=C1NN(c2ccccc2)C(=O)/C1=C\c1coc2ccc(O)cc2c1=O
23.8

Return inhibition (reported value) for this compound: C=CC[N+](C)(C)CCN1C(=O)C2C(c3ccccc3)C=CC(c3ccccc3)C2C1=O (stereo not drawn)
-0.41

Return inhibition (reported value) for this compound: COc1ccc(/C=N/N2CCN(C)CC2)cc1OC
4.11

Return inhibition (reported value) for this compound: COc1ccc(-c2csc(/C(C#N)=C/Nc3ccc4c(c3)OCCO4)n2)cc1
2.83

Return inhibition (reported value) for this compound: CCCc1cc(-n2cnc3ccccc32)n2c(nc3ccccc32)c1C#N
11

Return inhibition (reported value) for this compound: COc1ccccc1N1CCN(/N=C(\C)c2ccccc2O)CC1
9.26

Return inhibition (reported value) for this compound: COc1ccccc1NC(=O)C1=C(C)Nc2nc(-c3cccs3)nn2C1c1cccc(O)c1 (stereo not drawn)
3.45

Return inhibition (reported value) for this compound: O=C(COC(=O)C1CC(=O)N(c2ccccc2)C1)c1ccccc1 (stereo not drawn)
4.11

Return inhibition (reported value) for this compound: COc1ccc(CCc2ccc3cc(OC)ccc3n2)cc1
1.87

Return inhibition (reported value) for this compound: COc1ccc2c(c1)c(C(=O)N/N=C/c1cccc(O)c1)c(C)n2C
16.9
